- TEST_PROTOCOL: Stability of peptides in human liver microsomes
- Assay type: in vitro ADME
- SETUP_CONDITIONS: human, microsomes
Where a SMILES comes first, the peptide text is derived from it. [ ]: non-standard residue; d: D form. ξ: configuration not given here. ξαMePhe(2,6-F2) = CC(N)(Cc1c(F)cccc1F)C(=O)O; ξαMePhe(2-F) = CC(N)(Cc1ccccc1F)C(=O)O; Cit = NC(=O)NCCC[C@H](N)C(=O)O; Nle = CCCC[C@H](N)C(=O)O; Ac5c = NC1(C(=O)O)CCCC1; Aib = CC(C)(N)C(=O)O
ASSAY_ENDPOINT: half-life (t1/2) in liver microsomes

{"MOLECULE": "CCCC[C@H](NC(=O)C(C)(Cc1c(F)cccc1F)NC(=O)[C@H](CCC(N)=O)NC(=O)[C@@H](NC(=O)[C@H](CCC(=O)O)NC(=O)C(C)(C)NC(=O)[C@@H](NC(=O)C1(N)CCCC1)C(C)C)[C@@H](C)CC)C(=O)N[C@@H](Cc1c[nH]cn1)C(=O)N[C@@H](CCC(N)=O)C(=O)NC(C)(Cc1c(F)cccc1F)C(=O)NC(C)(C)C(=O)N[C@@H](CCCNC(N)=O)C(=O)NC(C)(Cc1ccccc1F)C(N)=O (stereo partly shown) [Seq. ID. 480] (H-[Ac5c]V[Aib]EIQ[ξαMePhe(2,6-F2)][Nle]HQ[ξαMePhe(2,6-F2)][Aib][Cit][ξαMePhe(2-F)]-NH2)", "TEST_RESULT": "(5) h"}

###

Each entry below carries its reported % degradation of peptides in 24 h when incubated with simulated gastric fluid.
- TEST_PROTOCOL: Stability of peptides in simulated gastric fluid (pH 1.5; HCl, NaCl and Pepsin)
- Format: in vitro ADME
- SETUP_CONDITIONS: simulated gastric fluid, 24 h, 2 μM, pH 1.5
Where a SMILES comes first, the peptide text is derived from it. [ ]: non-standard residue; d: D form. ξ: configuration not given here. Arg(NO2) = N=C(NCCC[C@H](N)C(=O)O)N[N+](=O)[O-]; ξαMePhe(2,6-F2) = CC(N)(Cc1c(F)cccc1F)C(=O)O; ξαMePhe(2-F) = CC(N)(Cc1ccccc1F)C(=O)O; ξαMeW = CC(N)(Cc1c[nH]c2ccccc12)C(=O)O; hhPhe = N[C@@H](CCCc1ccccc1)C(=O)O; hArg = N=C(N)NCCCC[C@H](N)C(=O)O; hCit = NC(=O)NCCCC[C@H](N)C(=O)O; Cit = NC(=O)NCCC[C@H](N)C(=O)O; ξαMeF = CC(N)(Cc1ccccc1)C(=O)O; ξαMeNle = CCCCC(C)(N)C(=O)O; Nle = CCCC[C@H](N)C(=O)O; Ac5c = NC1(C(=O)O)CCCC1; Ac3c = NC1(C(=O)O)CC1; Aib = CC(C)(N)C(=O)O
Number only, in %; omit the unit.

Example entries and their recorded answers appear below.
{"MOLECULE": "CC[C@H](C)[C@H](NC(=O)[C@H](CCC(=O)O)NC(=O)C(C)(C)NC(=O)[C@@H](NC(=O)C1(N)CC1)C(C)C)C(=O)N[C@@H](CCC(N)=O)C(=O)N[C@@H](CC(C)C)C(=O)N[C@@H](CCSC)C(=O)N[C@@H](Cc1c[nH]cn1)C(=O)N[C@@H](CCC(N)=O)C(=O)N[C@@H](CCCCNC(=N)N)C(=O)NC(C)(C)C(=O)N[C@@H](CCCCN)C(=O)NC(C)(Cc1ccccc1)C(N)=O (stereo partly shown) [Seq. ID. 14] (H-[Ac3c]V[Aib]EIQLMHQ[hArg][Aib]K[ξαMeF]-NH2)", "VALUE_UNITS": "%", "TEST_RESULT": 11}
{"MOLECULE": "CCCC[C@H](NC(=O)C(C)(Cc1c(F)cccc1F)NC(=O)[C@H](CCC(N)=O)NC(=O)[C@@H](NC(=O)[C@H](CCC(=O)O)NC(=O)C(C)(C)NC(=O)[C@@H](NC(=O)C1(N)CCCC1)C(C)C)[C@@H](C)CC)C(=O)N[C@@H](Cc1c[nH]cn1)C(=O)N[C@@H](CCC(N)=O)C(=O)N[C@@H](CCCCNC(=N)N)C(=O)NC(C)(C)C(=O)N[C@@H](CCCNC(=N)N[N+](=O)[O-])C(=O)NC(C)(Cc1ccccc1F)C(N)=O (stereo partly shown) [Seq. ID. 260] (H-[Ac5c]V[Aib]EIQ[ξαMePhe(2,6-F2)][Nle]HQ[hArg][Aib][Arg(NO2)][ξαMePhe(2-F)]-NH2)", "VALUE_UNITS": "%", "TEST_RESULT": 15}
{"MOLECULE": "CCCC[C@H](NC(=O)C(C)(Cc1c(F)cccc1F)NC(=O)[C@H](CCC(N)=O)NC(=O)[C@@H](NC(=O)[C@H](CCC(=O)O)NC(=O)C(C)(C)NC(=O)[C@@H](NC(=O)C1(N)CCCC1)C(C)C)[C@@H](C)CC)C(=O)N[C@@H](Cc1c[nH]cn1)C(=O)N[C@@H](CCC(N)=O)C(=O)N[C@@H](CCCCNC(=N)N)C(=O)NC(C)(C)C(=O)NC(C)(Cc1c(F)cccc1F)C(=O)NC(C)(Cc1c(F)cccc1F)C(N)=O (stereo partly shown) [Seq. ID. 240] (H-[Ac5c]V[Aib]EIQ[ξαMePhe(2,6-F2)][Nle]HQ[hArg][Aib][ξαMePhe(2,6-F2)][ξαMePhe(2,6-F2)]-NH2)", "VALUE_UNITS": "%", "TEST_RESULT": 14}
{"MOLECULE": "CCCC[C@H](NC(=O)C(C)(Cc1c(F)cccc1F)NC(=O)[C@H](CCC(N)=O)NC(=O)[C@@H](NC(=O)[C@H](CCC(=O)O)NC(=O)C(C)(C)NC(=O)[C@@H](NC(=O)C1(N)CCCC1)C(C)C)[C@@H](C)CC)C(=O)N[C@@H](Cc1c[nH]cn1)C(=O)N[C@@H](CCC(N)=O)C(=O)NC(C)(C)C(=O)NC(C)(C)C(=O)NC(C)(C)C(=O)NC(C)(Cc1ccccc1F)C(N)=O (stereo partly shown) [Seq. ID. 560] (H-[Ac5c]V[Aib]EIQ[ξαMePhe(2,6-F2)][Nle]HQ[Aib][Aib][Aib][ξαMePhe(2-F)]-NH2)", "VALUE_UNITS": "%", "TEST_RESULT": 14}
{"MOLECULE": "CCCC[C@H](NC(=O)C(C)(Cc1ccccc1F)NC(=O)[C@H](CCC(N)=O)NC(=O)[C@@H](NC(=O)[C@H](CCC(=O)O)NC(=O)C(C)(C)NC(=O)[C@@H](NC(=O)C1(N)CCCC1)C(C)C)[C@@H](C)CC)C(=O)N[C@@H](Cc1c[nH]cn1)C(=O)N[C@@H](CCC(N)=O)C(=O)N[C@@H](CCCCNC(N)=O)C(=O)N[C@@H](C)C(=O)N[C@@H](CCCNC(N)=O)C(=O)NC(C)(Cc1ccccc1F)C(N)=O (stereo partly shown) [Seq. ID. 411] (H-[Ac5c]V[Aib]EIQ[ξαMePhe(2-F)][Nle]HQ[hCit]A[Cit][ξαMePhe(2-F)]-NH2)", "VALUE_UNITS": "%", "TEST_RESULT": 14}

What the record says about CCCCC(C)(NC(=O)[C@H](CC(C)C)NC(=O)[C@H](CCC(N)=O)NC(=O)[C@@H](NC(=O)[C@H](CCC(=O)O)NC(=O)C(C)(C)NC(=O)[C@@H](NC(=O)C1(N)CC1)C(C)C)[C@@H](C)CC)C(=O)N[C@@H](Cc1c[nH]cn1)C(=O)N[C@@H](CCC(N)=O)C(=O)N[C@@H](CCCCNC(=N)N)C(=O)N[C@@H](C)C(=O)N[C@@H](CCCCNC(=N)N)C(=O)NC(C)(Cc1c[nH]c2ccccc12)C(=O)N[C@@H](CCCc1ccccc1)C(N)=O (stereo partly shown) [Seq. ID. 945] (H-[Ac3c]V[Aib]EIQL[ξαMeNle]HQ[hArg]A[hArg][ξαMeW][hhPhe]-NH2) : % degradation of peptides in 24 h when incubated with simulated gastric fluid is 100

What the record says about CCCC[C@H](NC(=O)C(C)(Cc1c(F)cccc1F)NC(=O)[C@H](CCC(N)=O)NC(=O)[C@@H](NC(=O)[C@H](CCC(=O)O)NC(=O)C(C)(C)NC(=O)[C@@H](NC(=O)C1(N)CCCC1)C(C)C)[C@@H](C)CC)C(=O)N[C@@H](Cc1c[nH]cn1)C(=O)N[C@@H](CCC(N)=O)C(=O)N[C@@H](CCCCNC(=N)N)C(=O)NC(C)(C)C(=O)NC(C)(Cc1c(F)cccc1F)C(=O)NC(C)(Cc1ccccc1F)C(N)=O (stereo partly shown) [Seq. ID. 220] (H-[Ac5c]V[Aib]EIQ[ξαMePhe(2,6-F2)][Nle]HQ[hArg][Aib][ξαMePhe(2,6-F2)][ξαMePhe(2-F)]-NH2) : % degradation of peptides in 24 h when incubated with simulated gastric fluid is 12
